- Test system: SW-620 colon
- measurementNotes: NCI-60 one-dose screen, 48 h
- measurementConditions: 10 µM unless noted
The panel holds about 83,000 compounds, 20% with a hit somewhere; the sample as a whole holds those more often. Active and inactive are the calls of the source. Rule for the calls: active = growth percent below 10; inactive = the rest.
Choose one outcome from this list and give only that: 1 = active, 0 = inactive

q: What classification did CCOC(=O)Cc1cnc(N/N=C(\C)c2cc3ccccc3o2)s1 end up with in this test?
a: 0

q: What classification did COc1c(B(O)O)cccc1-c1cc(C)c2c(ccc3[nH]ncc32)n1 end up with in this test?
a: 0

q: What classification did Fc1cnccc1C1CC(c2ccc(N3CCNCC3)cc2)=NN1 (centres undefined) end up with in this test?
a: 0

q: What classification did CCOC(=O)C#Cc1c(C(=O)OCC)nnn1Cc1ccc([N+](=O)[O-])cc1 end up with in this test?
a: 1

###

- Tested on: SK-MEL-28 melanoma
- measurementNotes: NCI-60 one-dose screen, 48 h (100 = growth as untreated, 0 = no growth, -100 = all killed)
- measurementConditions: 10 µM unless noted
Compounds without any hit were thinned out: in the full panel of roughly 83,000, 20% have a hit.
Hi! Could you tag entries with growth below 70% as 1, and those at or above as 0? Much appreciated.

q: Lab note: growth threshold 70%. Does this compound come in strictly under it? Fc1ccc(CNc2c3ccccc3nc3ccccc23)c(F)c1
a: 0

q: Lab note: growth threshold 70%. Does this compound come in strictly under it? COc1cc2cc(NCc3cccc(Cl)c3)nc(C)c2cc1OC
a: 1

q: Lab note: growth threshold 70%. Does this compound come in strictly under it? O=C1c2c(c3c4ccccc4[nH]c3c3ccc4ccccc4c23)C(=O)N1CCN1CCOCC1
a: 0

q: Lab note: growth threshold 70%. Does this compound come in strictly under it? COc1ccc(C(=O)/C=C/c2c(C(F)(F)F)nc3ccccn23)cc1OC
a: 1

q: Lab note: growth threshold 70%. Does this compound come in strictly under it? O=C(N(c1ccccc1)c1ccccc1)n1cc(I)c2nc(Cl)nc(Cl)c21
a: 0

###

- Test system: KM12 colon
- measurementNotes: NCI-60 one-dose screen, 48 h
- measurementConditions: 10 µM unless noted
The panel holds about 83,000 compounds, 20% with a hit somewhere; the sample as a whole holds those more often. Activity calls are given as the source filed them. Rule for the calls: active = growth percent below 10; inactive = the rest.
Choose one outcome from this list and give only that: Y for active, N for inactive

q: What classification did CS(=O)(=O)c1ccc(-c2cnn3ccc(-c4cccc(S(=O)(=O)C5CC5)c4)nc23)cc1 end up with in this test?
a: N

q: What classification did CCN1C(=S)N(c2ccccc2)C2C1NN=c1s/c(=C3\C(=O)N(C(C)C)c4ccccc43)c(=O)n12 (stereo unspecified) end up with in this test?
a: N

q: What classification did COc1ccc2cc1Oc1ccc(cc1)C[C@H]1c3c(cc4c(c3Oc3cc5c(cc3OC)CCN(C)[C@@H]5C2)OCO4)CCN1C end up with in this test?
a: N

q: What classification did CC(C)(Sc1cc(C(C)(C)C)c(OC(=O)CCCC(=O)O)c(C(C)(C)C)c1)Sc1cc(C(C)(C)C)c(OC(=O)CCCC(=O)O)c(C(C)(C)C)c1 end up with in this test?
a: N

q: What classification did Cc1nc2sc(C(=O)Nc3ccc(Br)cc3)c(N)c2cc1C(O)c1ccccc1 (stereo unspecified) end up with in this test?
a: N

q: What classification did c1cnc2c(-c3nc4ccc5[nH]ncc5c4c4c3CCCC4)c[nH]c2c1 end up with in this test?
a: N

q: What classification did CCOC(=O)[C@@H]1CSC(CC)=C(C(=O)O)N1 end up with in this test?
a: N

q: What classification did COc1ccc(C2=Nc3c(N)nc(N)nc3NC(c3cccc(Nc4ccnc5cc(C(F)(F)F)ccc45)c3)C2)cc1 (stereo unspecified) end up with in this test?
a: N

q: What classification did COc1ccc(/C=C(\C#N)n2nnc3cc(Cl)ccc32)cc1 end up with in this test?
a: Y

q: What classification did COc1cc(-c2nccc3[nH]c(-c4ccc5cc[nH]c5c4)nc23)cc(OC)c1OC end up with in this test?
a: Y

q: What classification did COc1ccc(Nc2nnc(-c3ccc(OC)c(OC)c3)o2)cc1 end up with in this test?
a: N

q: What classification did COC(=O)c1c(C)c2n(c1C)C(=O)C(c1ccccc1)=C2 end up with in this test?
a: N

q: What classification did Cc1csc(Nc2nc(-c3ccccn3)nc(C(Cl)(Cl)Cl)n2)n1 end up with in this test?
a: N

q: What classification did O=C(CSc1nc2sc3c(c2c(=O)n1-c1ccccc1)CCCCC3)N/N=C/c1cccc([N+](=O)[O-])c1 end up with in this test?
a: N

q: What classification did O=C(c1ccccc1)c1ccc(C2CCCCC2)cc1 end up with in this test?
a: N

q: What classification did Cc1ccc(CNc2ccc3nc(CCC4CCCCC4)[nH]c3c2)cc1 end up with in this test?
a: N

q: What classification did CC(=O)c1c(C)nc2ccccc2c1/C=C/c1ccc(F)cc1 end up with in this test?
a: N

q: What classification did Oc1ccc(Cl)cc1/C=N\NC(=S)N/N=C/c1cc(Cl)ccc1O end up with in this test?
a: N

q: What classification did COC(=O)C1Cc2ccccc2CN1C(=O)c1ccc2c(c1)Cc1ccccc1-2 (stereo unspecified) end up with in this test?
a: N

q: What classification did NC(=O)c1cccc(-n2ccc3cc(NC(=O)c4ccc(N5CCOCC5)c(C(F)(F)F)c4)ccc32)n1 end up with in this test?
a: N

q: What classification did COc1ccc2[nH]c(C(=O)N3CCN(C(=O)OCc4ccc5c(Cl)cc(Cl)c(O)c5n4)CC3)cc2c1 end up with in this test?
a: Y

q: What classification did COc1ccc(C(C)=O)cc1S(=O)(=O)Nc1c(N)nc(SC)[nH]c1=O end up with in this test?
a: N

q: What classification did CCCCNCCCCCNc1cc(OC)cc2cccnc12 end up with in this test?
a: N

q: What classification did C=C(C)[C@@H]1CCC[C@]2(COS(=O)(=O)c3ccc(C)cc3)CC[C@]3(C)[C@@H](CC[C@@H]4[C@@]5(C)CCCNC(C)(C)[C@@H]5CC[C@]43C)[C@@H]12 end up with in this test?
a: Y

q: What classification did CCN(CC)Cc1cc(C=C2C(=O)NC(=S)NC2=O)cc(OC)c1O end up with in this test?
a: N

q: What classification did CC1=C([Se]CC(OC(=O)CC[Se]c2ccccc2)C(=O)NC(C)(C)C)C(=O)c2ccccc2C1=O (stereo unspecified) end up with in this test?
a: Y

###

- System: HCT-15 colon
- measurementNotes: NCI-60 one-dose screen, 48 h (100 = growth as untreated, 0 = no growth, -100 = all killed)
- measurementConditions: 10 µM unless noted
The panel holds about 83,000 compounds, 20% with a hit somewhere; the sample as a whole holds those more often.
Would you kindly list growth for each of these molecules?
Return type: number; implicit unit %.

q: Entry C=CCSc1nnc(NC(=O)CCl)s1 needs its growth filled in; supply it.
a: 89.7

q: Entry O=C(Nn1c2c(sc1=NC1CC1)C(=O)c1ccccc1C2=O)c1cc2ccc1CCc1ccc(cc1)CC2 needs its growth filled in; supply it.
a: 2.79

q: Entry COC(=O)Nc1nc2ccc(S(=O)c3ccccc3)cc2[nH]1 (centres undefined) needs its growth filled in; supply it.
a: 45.6

q: Entry CC1CCN(S(=O)(=O)c2ccc(S(=O)(=O)N3CCCC(c4nc5c(nnn5Cc5cccc(Cl)c5)c(=O)[nH]4)C3)cc2)CC1 (centres undefined) needs its growth filled in; supply it.
a: 36.1

###

- System: PC-3 prostate
- measurementNotes: NCI-60 one-dose screen, 48 h
- measurementConditions: 10 µM unless noted
Compounds without any hit were thinned out: in the full panel of roughly 83,000, 20% have a hit. Active and inactive are the calls of the source. Rule for the calls: active = growth percent below 10; inactive = the rest.
Choose one outcome from this list and give only that: active, inactive

q: What classification did CCc1ccc(CCCC(=O)O)cc1 end up with in this test?
a: inactive

q: What classification did CCOC(=O)n1ccn(C)c1=S end up with in this test?
a: inactive

q: What classification did CCC(=C(c1ccc(OCCN2CCCCC2)cc1)c1ccc(OCCN2CCCCC2)cc1)c1ccc(Cl)cc1 end up with in this test?
a: active

q: What classification did C=CCSc1nnc(NC(=O)CCl)s1 end up with in this test?
a: inactive

q: What classification did O=C(Nc1cccc(Cl)c1)Nc1cccc(Cn2c(=O)[nH]c3ccc(Oc4ncccn4)cc3c2=O)c1 end up with in this test?
a: inactive

q: What classification did O=C(Nc1nc2ccc(C(=O)N3CCN(/C=C/c4ccccc4)CC3)cc2s1)c1ccc(NCCc2ccccc2)c([N+](=O)[O-])c1 end up with in this test?
a: inactive

q: What classification did O=C(N/N=C/c1ccc(Cl)cc1)c1[nH]c2ccc(Cl)cc2c1-c1ccccc1 end up with in this test?
a: inactive

q: What classification did Cc1c(-c2ccc(O)cc2)n(Cc2ccc(OCCN3CCCCCC3)cc2)c2ccc(O)cc12 end up with in this test?
a: inactive
